# EXPERIMENTAL_TARGET: cloned human NK2 receptors (Homo sapiens, UniProt P21452)
# Construct: expressed in transfected cells
# EXPERIMENT_DESCRIPTION: Ca2+ measurements using FLIPR for NK2 activity in CHO cells
# Assay type: cell-based
# CONDITION: NKA 10^-7 M as agonist; compound applied 7 min before; pA2 calculated from IC50
MEASURED_PROPERTY: Kb (nM)

COMPOUND	EXPERIMENTAL_TARGET	READOUT_UNIT	Kb
CN(C[C@@H](CCN1CCN([C@@H](c2cc3ccccc3s2)[C@H](O)CO)CC1)c1ccc(Cl)c(Cl)c1)C(=O)c1cc(C#N)cc2ccccc12	cloned human NK2 receptors (Homo sapiens, UniProt P21452)	nM	3.16
CN(C[C@@H](CCN1CCN([C@@H](c2ccc(Cl)s2)[C@H](O)CO)CC1)c1ccc(Cl)c(Cl)c1)C(=O)c1cc(C#N)cc2ccccc12	cloned human NK2 receptors (Homo sapiens, UniProt P21452)	nM	2.51

(1) CN(C[C@@H](CCN1CCN(C(c2ccco2)C(O)CO)CC1)c1ccc(Cl)c(Cl)c1)C(=O)c1cc(C#N)cc2ccccc12 (stereo partly drawn)
(2) CN(C[C@@H](CCN1CCN([C@@H](c2ccc3c(c2)OCO3)[C@H](O)CO)CC1)c1ccc(Cl)c(Cl)c1)C(=O)c1cc(C#N)cc2ccccc12
(3) CN(C[C@@H](CCN1CCN([C@@H](c2ccco2)[C@H](O)CO)CC1)c1ccc(Cl)c(Cl)c1)C(=O)c1cc(C#N)cc2ccccc12
(4) CN(C[C@@H](CCN1CCN([C@@H](c2ccsc2)[C@H](O)CO)CC1)c1ccc(Cl)c(Cl)c1)C(=O)c1cc(C#N)cc2ccccc12
Sort ascending by Kb. The reply should contain the labels ordered as requested.
2, 4, 1, 3

###

# EXPERIMENTAL_TARGET: cloned human NK2 receptors (Homo sapiens, UniProt P21452)
# Construct: expressed in transfected cells
# Sequence (P21452 1-398): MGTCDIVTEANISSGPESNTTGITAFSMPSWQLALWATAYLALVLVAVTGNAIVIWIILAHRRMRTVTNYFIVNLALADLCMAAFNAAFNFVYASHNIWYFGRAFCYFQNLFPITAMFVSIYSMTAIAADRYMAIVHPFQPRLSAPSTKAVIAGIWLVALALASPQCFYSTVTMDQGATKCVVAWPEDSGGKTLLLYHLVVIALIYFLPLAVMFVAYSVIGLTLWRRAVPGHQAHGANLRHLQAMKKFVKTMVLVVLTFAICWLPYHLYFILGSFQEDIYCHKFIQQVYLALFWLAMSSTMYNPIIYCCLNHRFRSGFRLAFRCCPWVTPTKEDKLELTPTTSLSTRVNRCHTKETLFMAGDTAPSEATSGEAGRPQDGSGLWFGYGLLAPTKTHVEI
# EXPERIMENT_DESCRIPTION: Ca2+ measurements using FLIPR for NK2 activity in CHO cells
# Assay type: cell-based
# CONDITION: NKA 10^-7 M as agonist; compound applied 7 min before; pA2 calculated from IC50
MEASURED_PROPERTY: pA2 (NK2)

Below are worked cases with known answers.
MOLECULE	OBS_VALUE
CC(=O)OCC(O)C(Cc1ccccc1)N1CCN(CCC(CN(C)C(=O)c2cc(C#N)cc3ccccc23)c2ccc(Cl)c(Cl)c2)CC1 (stereo not drawn)	7,4
CC(=O)OC[C@@H](OC(C)=O)[C@H](c1ccco1)N1CCN(CC[C@H](CN(C)C(=O)c2cc(C#N)cc3ccccc23)c2ccc(Cl)c(Cl)c2)CC1	8,1

Which pA2 (NK2) value is on record for CN(CC(CCN1CCN(C(Cc2ccccc2)C(O)CO)CC1)c1ccc(Cl)c(Cl)c1)C(=O)c1cc(C#N)cc2ccccc12 (stereo not drawn) ?
7,8

###

# EXPERIMENTAL_TARGET: human NK2 receptors (Homo sapiens, UniProt P21452)
# Construct: expressed in transfected cells; host or cells: CHO cells (membrane preparation)
# EXPERIMENT_DESCRIPTION: Binding of the test substances to NK2 receptors in vitro ([3H]-SR 48968 displacement, CHO cell membranes)
# CONDITION: [3H]-SR 48968 as ligand; membranes of CHO cells expressing the human NK2 receptor; 90 min incubation; Ki calculated from IC50; read-out: pKi (NK2) (converted)
MEASURED_PROPERTY: Ki (nM)

Use the examples below as a reference point.
CN(C[C@@H](CCN1CCN([C@@H](c2ccc3c(c2)OCO3)[C@H](O)CO)CC1)c1ccc(Cl)c(Cl)c1)C(=O)c1cc(C#N)cc2ccccc12 398
CN(C[C@@H](CCN1CCN([C@@H](c2ccsc2)[C@H](O)[C@H](O)[C@H](O)CO)CC1)c1ccc(Cl)c(Cl)c1)C(=O)c1cc(C#N)cc2ccccc12 126

(1) CN(C[C@@H](CCN1CCN([C@@H](c2ccsc2)[C@H]2COC(=O)O2)CC1)c1ccc(Cl)c(Cl)c1)C(=O)c1cc(C#N)cc2ccccc12
(2) CN(C[C@@H](CCN1CCN([C@@H](c2ccco2)[C@H](O)CO)CC1)c1ccc(Cl)c(Cl)c1)C(=O)c1cc(C#N)cc2ccccc12
(3) CN(C[C@@H](CCN1CCN([C@@H](c2cc3ccccc3s2)[C@H](O)CO)CC1)c1ccc(Cl)c(Cl)c1)C(=O)c1cc(C#N)cc2ccccc12
hey, can you rank those molecules up there by Ki? biggest number first please Output spec: a listing of the labels in the requested order.
3, 1, 2
